- System: NCI-H358
- assay.method.text: relative viability (nuclei count vs DMSO), 5 days (fraction); higher = more cells survive
- test.context: first compound 0.4 µM
Would you kindly list relative viability for each of these molecules?
Answers are plain numbers.

[[record]]
molecule = "C[C@@H]1CN(CC(=O)Nc2ccc3c(c2)Cc2cccc(-c4cc(=O)cc(N5CCOCC5)o4)c2S3)C[C@H](C)O1 + COc1cccc2cc(-c3nc([C@H]4CC[C@H](C(=O)O)CC4)n4ncnc(N)c34)[nH]c12 [OSI-027] (partner 0.5 µM)"
reported_result = 0.852

[[record]]
molecule = "COc1cc(N2CCC(C(N)=O)CC2)ccc1Nc1nc(N)c(Cl)c(Nc2ccccc2S(=O)(=O)C(C)C)n1 [HG-5-88-01] + COc1cc2c(Oc3ccc(NC(=O)C4(C(=O)Nc5ccc(F)cc5)CC4)cc3F)ccnc2cc1OCCCN1CCOCC1 [Foretinib] (partner 0.25 µM)"
reported_result = 0.479

[[record]]
molecule = "COc1cc(N2CCC(C(N)=O)CC2)ccc1Nc1nc(N)c(Cl)c(Nc2ccccc2S(=O)(=O)C(C)C)n1 [HG-5-88-01] + CS(=O)(=O)N1CCN(Cc2cc3nc(-c4cccc5[nH]ncc45)nc(N4CCOCC4)c3s2)CC1 [Pictilisib] (partner 1 µM)"
reported_result = 0.302

[[record]]
molecule = "Clc1ccc(Nc2nnc(Cc3ccncc3)c3ccccc23)cc1 [Vatalanib] + C[C@@H](Oc1cc(-c2cnn(C3CCNCC3)c2)cnc1N)c1c(Cl)ccc(F)c1Cl [Crizotinib] (partner 1 µM)"
reported_result = 0.8

[[record]]
molecule = "C[C@@H]1CN(CC(=O)Nc2ccc3c(c2)Cc2cccc(-c4cc(=O)cc(N5CCOCC5)o4)c2S3)C[C@H](C)O1 + Nc1ncn([C@H]2C[C@H](O)[C@@H](CO)O2)c(=O)n1 [Decitabine] (partner 2 µM)"
reported_result = 0.172


Report relative viability for every entry below.
1. Clc1ccc(Nc2nnc(Cc3ccncc3)c3ccccc23)cc1 [Vatalanib] + CS(=O)(=O)CCNCc1ccc(-c2ccc3ncnc(Nc4ccc(OCc5cccc(F)c5)c(Cl)c4)c3c2)o1 [Lapatinib] (partner 2 µM)
2. COc1cc(N2CCC(C(N)=O)CC2)ccc1Nc1nc(N)c(Cl)c(Nc2ccccc2S(=O)(=O)C(C)C)n1 [HG-5-88-01] + O=C(CCCCCCC(=O)Nc1ccccc1)NO [Vorinostat] (partner 1 µM)
3. COc1cc(N2CCC(C(N)=O)CC2)ccc1Nc1nc(N)c(Cl)c(Nc2ccccc2S(=O)(=O)C(C)C)n1 [HG-5-88-01] + CC(=O)c1c(C)c2cnc(Nc3ccc(N4CCNCC4)cn3)nc2n(C2CCCC2)c1=O [Palbociclib] (partner 0.5 µM)

## Output
1. 0.564
2. 0.544
3. 0.118

## Input Which value of relative viability has been reported for Clc1ccc(Nc2nnc(Cc3ccncc3)c3ccccc23)cc1 [Vatalanib] + Cc1nc(Nc2ncc(C(=O)Nc3c(C)cccc3Cl)s2)cc(N2CCN(CCO)CC2)n1 [Dasatinib] (partner 0.075 µM) in the records?
## Output 0.165

====

- System: ChaGo-K-1
- assay.method.text: relative viability (nuclei count vs DMSO), 5 days (fraction); higher = more cells survive
- test.context: first compound 1.265 µM
Labelling field: enter Satisfied if recorded relative viability is less than 0.9. Enter Not satisfied if it equals or exceeds that cut-off.

Take a look at these entries with their results.
[[record]]
compound = "COc1cc(N2CCC(C(N)=O)CC2)ccc1Nc1nc(N)c(Cl)c(Nc2ccccc2S(=O)(=O)C(C)C)n1 [HG-5-88-01] + NC(=O)Nc1cc(-c2cccc(F)c2)sc1C(=O)N[C@H]1CCCNC1 [AZD7762] (partner 0.2 µM)"
category_label = "Satisfied"

[[record]]
compound = "COc1cc(N2CCC(C(N)=O)CC2)ccc1Nc1nc(N)c(Cl)c(Nc2ccccc2S(=O)(=O)C(C)C)n1 [HG-5-88-01] + Nc1nc2[nH]cc(CCc3ccc(C(=O)N[C@@H](CCC(=O)O)C(=O)O)cc3)c2c(=O)[nH]1 [Pemetrexed] (partner 0.2 µM)"
category_label = "Satisfied"

[[record]]
compound = "COc1cc(N2CCC(C(N)=O)CC2)ccc1Nc1nc(N)c(Cl)c(Nc2ccccc2S(=O)(=O)C(C)C)n1 [HG-5-88-01] + Nc1ncn([C@H]2C[C@H](O)[C@@H](CO)O2)c(=O)n1 [Decitabine] (partner 2 µM)"
category_label = "Satisfied"


Would you kindly look at the next entry?
## Input Identify whether the compound COc1cc(N2CCC(C(N)=O)CC2)ccc1Nc1nc(N)c(Cl)c(Nc2ccccc2S(=O)(=O)C(C)C)n1 [HG-5-88-01] + CC1(C)CCC(c2ccc(Cl)cc2)=C(CN2CCN(c3ccc(C(=O)NS(=O)(=O)c4ccc(N[C@H](CCN5CCOCC5)CSc5ccccc5)c(S(=O)(=O)C(F)(F)F)c4)cc3)CC2)C1 [Navitoclax] (partner 0.5 µM) records relative viability below 0.9.
## Output Not satisfied

====

- Tested on: HOP-62
- assay.method.text: relative viability (nuclei count vs DMSO), 5 days (fraction); higher = more cells survive
- test.context: first compound 0.01 µM
Would you kindly list relative viability for each of these compounds?
One number for each entry.

Solved cases below.
[[record]]
compound = "CC(C)Oc1cc(Nc2nc(N[C@@H](C)c3ccc(F)cn3)ncc2Cl)n[nH]1 [AZ23] + Cc1nc(Nc2ncc(C(=O)Nc3c(C)cccc3Cl)s2)cc(N2CCN(CCO)CC2)n1 [Dasatinib] (partner 0.075 µM)"
reported_result = 0.702

[[record]]
compound = "CC(C)Oc1cc(Nc2nc(N[C@@H](C)c3ccc(F)cn3)ncc2Cl)n[nH]1 [AZ23] + COc1cc2c(Oc3ccc(NC(=O)C4(C(=O)Nc5ccc(F)cc5)CC4)cc3F)ccnc2cc1OCCCN1CCOCC1 [Foretinib] (partner 0.25 µM)"
reported_result = 1.33


With those in mind, consider the next compound.
## Input Which value of relative viability has been reported for CC(C)Oc1cc(Nc2nc(N[C@@H](C)c3ccc(F)cn3)ncc2Cl)n[nH]1 [AZ23] + Cc1cc(Nc2cc(N3CCN(C)CC3)nc(Sc3ccc(NC(=O)C4CC4)cc3)n2)n[nH]1 [Tozasertib] (partner 0.1 µM) in the records?
## Output 0.352

====

- System: IA-LM
- assay.method.text: relative viability (nuclei count vs DMSO), 5 days (fraction); higher = more cells survive
- test.context: first compound 4 µM
recorded.endpoint: relative viability
Give bare numbers.

Solved cases below.
[[record]]
compound = "C[C@@H]1CN(CC(=O)Nc2ccc3c(c2)Cc2cccc(-c4cc(=O)cc(N5CCOCC5)o4)c2S3)C[C@H](C)O1 + CS(=O)(=O)CCNCc1ccc(-c2ccc3ncnc(Nc4ccc(OCc5cccc(F)c5)c(Cl)c4)c3c2)o1 [Lapatinib] (partner 2 µM)"
reported_result = 0.339

[[record]]
compound = "Clc1ccc(Nc2nnc(Cc3ccncc3)c3ccccc23)cc1 [Vatalanib] + C[C@]1(O)C[C@@H](c2nc(-c3ccc4ccc(-c5ccccc5)nc4c3)c3c(N)nccn32)C1 [Linsitinib] (partner 1 µM)"
reported_result = 0.582

[[record]]
compound = "C[C@@H]1CN(CC(=O)Nc2ccc3c(c2)Cc2cccc(-c4cc(=O)cc(N5CCOCC5)o4)c2S3)C[C@H](C)O1 + O=C(CCCCCCC(=O)Nc1ccccc1)NO [Vorinostat] (partner 1 µM)"
reported_result = 0.897

[[record]]
compound = "COc1cc(N2CCC(C(N)=O)CC2)ccc1Nc1nc(N)c(Cl)c(Nc2ccccc2S(=O)(=O)C(C)C)n1 [HG-5-88-01] + CS(=O)(=O)N1CCN(Cc2cc3nc(-c4cccc5[nH]ncc45)nc(N4CCOCC4)c3s2)CC1 [Pictilisib] (partner 1 µM)"
reported_result = 0.145


With those in mind, consider the next compound.
## Input Which value of relative viability has been reported for Clc1ccc(Nc2nnc(Cc3ccncc3)c3ccccc23)cc1 [Vatalanib] + O=C(CCCCCCC(=O)Nc1ccccc1)NO [Vorinostat] (partner 1 µM) in the records?
## Output 0.976

====

- Tested on: NCI-H3122
- assay.method.text: relative viability (nuclei count vs DMSO), 5 days (fraction); higher = more cells survive
- test.context: first compound 0.01 µM
recorded.endpoint: relative viability

Solved cases below.
[[record]]
compound = "CC(C)Oc1cc(Nc2nc(N[C@@H](C)c3ccc(F)cn3)ncc2Cl)n[nH]1 [AZ23] + Cc1cc(Nc2cc(N3CCN(C)CC3)nc(Sc3ccc(NC(=O)C4CC4)cc3)n2)n[nH]1 [Tozasertib] (partner 0.1 µM)"
tested_on = "NCI-H3122"
recorded_endpoint = "relative viability"
reported_result = 0.504

[[record]]
compound = "CC(C)Oc1cc(Nc2nc(N[C@@H](C)c3ccc(F)cn3)ncc2Cl)n[nH]1 [AZ23] + COc1cc2c(Oc3ccc(NC(=O)C4(C(=O)Nc5ccc(F)cc5)CC4)cc3F)ccnc2cc1OCCCN1CCOCC1 [Foretinib] (partner 0.25 µM)"
tested_on = "NCI-H3122"
recorded_endpoint = "relative viability"
reported_result = 1.15

[[record]]
compound = "CC(C)Oc1cc(Nc2nc(N[C@@H](C)c3ccc(F)cn3)ncc2Cl)n[nH]1 [AZ23] + O=C(CCCCCCC(=O)Nc1ccccc1)NO [Vorinostat] (partner 1 µM)"
tested_on = "NCI-H3122"
recorded_endpoint = "relative viability"
reported_result = 1.45

[[record]]
compound = "CC(C)Oc1cc(Nc2nc(N[C@@H](C)c3ccc(F)cn3)ncc2Cl)n[nH]1 [AZ23] + Cc1nc(NC(=O)N2CCC[C@H]2C(N)=O)sc1-c1ccnc(C(C)(C)C(F)(F)F)c1 [Alpelisib] (partner 2 µM)"
tested_on = "NCI-H3122"
recorded_endpoint = "relative viability"
reported_result = 0.811

[[record]]
compound = "CC(C)Oc1cc(Nc2nc(N[C@@H](C)c3ccc(F)cn3)ncc2Cl)n[nH]1 [AZ23] + O=C(c1cc(Cc2n[nH]c(=O)c3ccccc23)ccc1F)N1CCN(C(=O)C2CC2)CC1 [Olaparib] (partner 8 µM)"
tested_on = "NCI-H3122"
recorded_endpoint = "relative viability"
reported_result = 0.627


With those in mind, consider the next compound.
## Input Which value of relative viability has been reported for CC(C)Oc1cc(Nc2nc(N[C@@H](C)c3ccc(F)cn3)ncc2Cl)n[nH]1 [AZ23] + Cc1nc(Nc2ncc(C(=O)Nc3c(C)cccc3Cl)s2)cc(N2CCN(CCO)CC2)n1 [Dasatinib] (partner 0.075 µM) in the records?
## Output 0.946
